Every entry's value here was drawn from patent US12064445B2.

Tested on: NCIH727 (Human lung non small cell carcinoma)
Assay: MTT assay, IC50 in tumor cell lines
Format: cell-based
Details: NCI-H727, NCIH727, 72 hr
Experimental: The effect of Astarabine® on different cell lines was evaluated. Briefly, various cell lines were obtained from ATCC or ECACC. Hematological cells were grown in RPMI medium containing 10-20% FBS and 1% glutamine. Solid tumor cells were grown in DMEM medium containing 10-20% FBS and 1% glutamine. Cells were seeded into 96-well plates, 50,000 cells/ml, 0.2 ml per well. […] Absorbance was determined using ELISA reader at a wavelength of 570 nm.
Endpoint: IC50

{"Molecule": "Nc1ccn([C@@H]2O[C@H](CO)[C@@H](O)[C@@H]2O)c(=O)n1 [cytarabine, cytosine arabinoside]", "Tested On": "NCIH727 (Human lung non small cell carcinoma)", "Reading": "590 to 770 nM"}

Consider now this further molecule.
Asked: Identify the measured IC50 of "N[C@@H](CC(=O)Nc1ccn([C@@H]2O[C@H](CO)[C@@H](O)[C@@H]2O)c(=O)n1)C(=O)O" for NCIH727 (Human lung non small cell carcinoma).
Given back: 1300 to 2800 nM

----------
test: Maximal tolerated dose, repeated dose IP (7 days) in mice; type: in vivo; conditions: TRC, mouse, in vivo, IP for 7 days, read-out: MTD (maximal tolerated dose)
Endpoint: MTD at 7 days (mg/kg/day)
I only need the number, in mg/kg/day, no unit after it.

Asked: Given the entry N[C@@H](CC(=O)Nc1ccn([C@@H]2O[C@H](CO)[C@@H](O)[C@@H]2O)c(=O)n1)C(=O)O [Astarabine®] , report its measured MTD at 7 days.
Given back: 781

----------
Test system: P388.D1 (Mouse lymphoid macrophage)
Assay: MTT assay, IC50 in tumor cell lines
Assay type: cell-based
Conditions: P388D1, P388.D1, 72 hr
Protocol: The effect of Astarabine® on different cell lines was evaluated. Briefly, various cell lines were obtained from ATCC or ECACC. Hematological cells were grown in RPMI medium containing 10-20% FBS and 1% glutamine. Solid tumor cells were grown in DMEM medium containing 10-20% FBS and 1% glutamine. Cells were seeded into 96-well plates, 50,000 cells/ml, 0.2 ml per well. […] Absorbance was determined using ELISA reader at a wavelength of 570 nm.
pIC50: −log10 of the molar value.
Endpoint: pIC50

{"Molecule": "Nc1ccn([C@@H]2O[C@H](CO)[C@@H](O)[C@@H]2O)c(=O)n1 [cytarabine, cytosine arabinoside]", "Tested On": "P388.D1 (Mouse lymphoid macrophage)", "pIC50": "6.05 to 6.22"}

Please look at the following molecule next.
Asked: State its pIC50 on P388.D1 (Mouse lymphoid macrophage): "N[C@@H](CC(=O)Nc1ccn([C@@H]2O[C@H](CO)[C@@H](O)[C@@H]2O)c(=O)n1)C(=O)O"
Given back: 5.59 to 5.72

----------
test: in vivo; conditions: IRC, mouse, iv, 400 mg/kg/day
Endpoint: MTD at 14 days (mg/kg)
Give just the numeric value; mg/kg need not be written.

Asked: Please report the recorded MTD at 14 days for "N[C@@H](CC(=O)Nc1ccn([C@@H]2O[C@H](CO)[C@@H](O)[C@@H]2O)c(=O)n1)C(=O)O" .
Given back: 5600

----------
experiment: Maximal tolerated dose, single dose IP in mice; assay type: in vivo; conditions: IRC, mouse, in vivo, single dose IP
Endpoint: MTD at 7 days (mg/kg)
Field: numeric (mg/kg). Do not append units.

Asked: # query: MTD at 7 days of entry "N[C@@H](CC(=O)Nc1ccn([C@@H]2O[C@H](CO)[C@@H](O)[C@@H]2O)c(=O)n1)C(=O)O"
Given back: 8270

----------
tested on: Molt-4 (Human acute lymphoblastic leukemia); assay: MTT assay, IC50 in tumor cell lines; format: cell-based; settings: Molt-4, 72 hr
Endpoint: IC50

Asked: Record "N[C@@H](CC(=O)Nc1ccn([C@@H]2O[C@H](CO)[C@@H](O)[C@@H]2O)c(=O)n1)C(=O)O" : what is its IC50 with Molt-4 (Human acute lymphoblastic leukemia)?
Given back: 4 to 24 nM

Asked: Given the entry Nc1ccn([C@@H]2O[C@H](CO)[C@@H](O)[C@@H]2O)c(=O)n1 [cytarabine, cytosine arabinoside] , what IC50 was observed with Molt-4 (Human acute lymphoblastic leukemia)?
Given back: 1.1 to 12.3 nM

----------
# reported IC50; entries follow
system: RPMI8226 (Human myeloma); experiment: MTT assay, IC50 in tumor cell lines; type: cell-based; conditions: RPMI-8226, RPMI8226, 72 hr

{"Compound": "N[C@@H](CC(=O)Nc1ccn([C@@H]2O[C@H](CO)[C@@H](O)[C@@H]2O)c(=O)n1)C(=O)O [Astarabine®]", "Reading": "33.4 to 144 µM"}

Lab note: next compound to report on.
Asked: Quick check: IC50 of Nc1ccn([C@@H]2O[C@H](CO)[C@@H](O)[C@@H]2O)c(=O)n1 [cytarabine, cytosine arabinoside] ?
Given back: 9.7 to 63 µM

----------
test: Maximal tolerated dose, repeated dose IP (7 days) in mice; type: in vivo; conditions: TRC, mouse, in vivo, 781 mg/kg/day IP for 7 days, read-out: Accumulative dose at MTD
Endpoint: MTD at 7 days (mg/kg)
Numeric only. Scale: mg/kg

Asked: State the recorded MTD at 7 days for this entry: "N[C@@H](CC(=O)Nc1ccn([C@@H]2O[C@H](CO)[C@@H](O)[C@@H]2O)c(=O)n1)C(=O)O"
Given back: 5470
